Test system: Malme-3M
Assay remarks: NCI tumour cell line growth inhibition, 48 h
Active and inactive are the calls of the source. Cut-off read from the data, not from the text of the source: active = GI50 up to about 1.1 µM and inactive = higher.
Result type: GI50

The cases that follow already have their GI50 on record.
>>> result("Cc1nc2c(o1)/C(=N\\c1ccccc1)c1ccccc1C2=O")
"3.98 µM (inactive)"
>>> result("CCc1cc(C(=O)OC)cn1C(=N)c1ccc(Cl)cc1")
"> 100 µM (inactive)"
>>> result("CC(C)C(N)(C(=O)O)c1ccccc1 (configuration not stated)")
"> 100 µM (inactive)"

Give its GI50 value. Item: O=C(CCCn1cnc([N+](=O)[O-])n1)NCCCn1ccnc1[N+](=O)[O-]
83.2 µM (inactive)

Can you share its GI50? I mean this compound: COc1c(C)cc(O)cc1C=O
> 100 µM (inactive)

What value of GI50 has been reported for the following compound? COC(=O)c1cc2ccc(OC(C)=O)c(OC(C)=O)c2cn1
8.07 µM (inactive)

Find the recorded GI50 belonging to CCC1(CC)C(=O)NC(=O)NC1=S and report it.
> 100 µM (inactive)
